Every entry's value here was drawn from patent US20110287494A1.

# System: imine reductase purified from GF3587
# Assay Comment: Substrate specificity of imine reductase purified from GF3587 (decrease of NADPH absorbance at 340 nm)
# Type: biochemical, Streptomyces sp. GF3587
# Condition Context: substrate 10 mM; 2-MPN = 100
Measurement Name: Relative Activity
Numbers only.

Some compounds with recorded Relative Activity:
Cc1cnccn1 [2-Methylpyrazine] ... 0
C1=NCCCN1 [1,4,5,6-Tetrahydropyrimidine] ... 0
CC1=NCCC1 [2-Methyl-1-pyrroline (2-MPN), 2-Methyl-1-pyrroline] ... 100
C(=NCc1ccccc1)c1ccccc1 [N-Benzylidenebenzylamine] ... 30
Cc1nccs1 [2-Methylthiazole] ... 0

Provide the reported Relative Activity of each entry below, same order.
1. Cc1ccco1 [2-Methylfuran]
2. Cc1ncccn1 [2-Methylpyrimidine]
3. Cc1ncc[nH]1 [2-Methylimidazole]

Reply |
1. 0
2. 0
3. 0
